procedure_summary: chemical genetic growth profiling, strain panel (AID 1159580);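 further: tested at 20 µM; growth read once vehicle control cultures reached saturation at 30 °C; 1 = growth at the plate median or of vehicle wells; lower values mean less growth of the strain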
particulars: S. cerevisiae deletion strains, growth OD, locus YJL187C, strain SWE1, hits give low values
About 2,000 (36%) of roughly 5,500 compounds were called active. Roughly 18% stayed inconclusive and do not appear here. The list shows a part of the results.
I'd appreciate it if you could supply normalized growth values for the items below.

// solved cases for normalized growth follow
CC(=O)O[C@H]1CC[C@@]2(C)C(C[C@@H](OC(C)=O)[C@]3(C)C2CC[C@@]2(C)[C@H](c4ccoc4)OC(=O)[C@H]4O[C@]423)C1(C)C (stereo partly drawn): 1 (inactive)
O=S(=O)(c1ccc(Cl)cc1)c1cc(C(F)(F)F)cc(C(F)(F)F)c1: 0.984 (inactive)

I would be grateful if you could provide normalized growth for each of the following entries.
1. FC(F)(F)c1cc(Cl)c2nsnc2c1
2. Clc1ccc(COC(Cn2ccnc2)c2ccc(Cl)cc2Cl)c(Cl)c1 (stereo not drawn)
3. CC(=O)O[C@@H]1CC2C(C)(C)[C@@H](O)CC[C@]2(C)C2CC[C@@]3(C)[C@H](c4ccoc4)OC(=O)[C@H]4O[C@]43[C@@]21C (stereo partly drawn)

0.99 (inactive)
0.0602 (active)
0.991 (inactive)

Hi team, please reply with normalized growth for each item in this list.
1. CC(=O)O[C@@H]1CC2C(C)(C)[C@H](O)C=C[C@]2(C)C2CC[C@@]3(C)[C@H](c4ccoc4)OC(=O)C4OC43[C@@]21C (stereo partly drawn)
2. Clc1ccc(COC(Cn2ccnc2)c2ccc(Cl)cc2Cl)cc1 (stereo not drawn)
3. CC(=O)O[C@@H]1CC2C(C)(C)C(=O)C3OC3[C@]2(C)C2CC[C@@]3(C)[C@H](c4ccoc4)OC(=O)C4OC43[C@@]21C (stereo partly drawn)

1: 1.01 (inactive); 2: 0.058 (active); 3: 0.993 (inactive)

* * *

For each of the compounds below, state its normalized growth.
procedure_summary: chemical genetic growth profiling, strain panel (AID 1159580)
particulars: S. cerevisiae deletion strains, growth OD, locus YNL322C, strain KRE1 (second series), hits give low values
About 2,000 (36%) of roughly 5,500 compounds were called active. Inconclusive results (about 18%) are left out. This is one part of the list. Where a SMILES comes first, the peptide text is derived from it.
One number for each entry.

The examples below pair each entry with its known result.
C[C@H]1C[C@@H](O)[C@]2(O)[C@@]13CC(=O)OC[C@@]2(C)[C@](C)(O)C(=O)C3: 1.02
COc1ccc2c(c1)OCC(Cc1ccc(OC)c(O)c1)C2=O (centres undefined): 0.949
COC(=O)/C(C)=C\CC12OC(C)(C)C3CC(C=C4C(=O)c5c(OC)c6c(c(CC=C(C)C)c5OC431)OC(C)(CCC=C(C)C)C=C6)C2=O (centres undefined): 1.01
CC(=O)OC/C=C(\C)CC/C=C(\C)CC/C=C(\C)CC/C=C(\C)CC/C=C(\C)CC/C=C(\C)CC/C=C(\C)CC/C=C(\C)CCC=C(C)C: 0.97
CC(=O)N[C@@H](CC(=O)O)C(=O)N[C@@H](CCC(=O)O)C(=O)O (Ac-Asp-Glu-OH): 1

Batch request: normalized growth per item, same order as input.
1. COc1ccc2c(c1)OCC(Cc1ccc(OC)c(OC(C)=O)c1)C2=O (centres undefined)
2. COc1cc2c(cc1OC)C1(O)C(=O)c3ccc(O)c(C(=O)O)c3OC1CO2 (centres undefined)
3. O=c1[nH]c(=O)n(C2C[C@H](O)[C@@H](CO)O2)cc1C(F)(F)F (some centres undefined)
4. COc1ccc2c(c1)OCC(Cc1ccc(O)c(OC)c1)C2=O (centres undefined)

[0.979, 1.01, 0.935, 0.977]

* * *

procedure_summary: chemical genetic growth profiling, strain panel (AID 1159580)
particulars: S. cerevisiae deletion strains, growth OD, locus YCL061C, strain MRC1 (second series)
The campaign covered roughly 5,500 compounds. About 2,000 (36%) were called active. Inconclusive results (about 18%) are left out. Cut-off read from the data, not from the text of the source: active = normalized growth mostly below about 0.91 (no sharp cut-off); inconclusive = no clear call, values can overlap the other calls; inactive = mostly above about 0.92. The list shows a part of the results.
Output constraint: value belongs to active, inactive

Field: outcome | Entry: "CCCNC(=O)NS(=O)(=O)c1ccc(Cl)cc1"
inactive

# lookup: test call for "CCCN(CCC)C1Cc2cc(OC)c(OC)cc2C1"
inactive

Test call for this compound, please: "O=c1[nH]c2cc(C(F)(F)F)ccc2n1-c1cc(C(F)(F)F)ccc1O"
inactive

Short answer needed: outcome of this test for Clc1ccc(C(c2ccc(Cl)cc2)n2cc[n+](CC(OCc3ccc(Cl)cc3Cl)c3ccc(Cl)cc3Cl)c2)cc1 (stereo not given) ?
active

Check the results log: what was the call for "NC(N)=NCCSSCCN=C(N)N" ?
inactive

* * *

Answer each item with its documented normalized growth.
procedure_summary: chemical genetic growth profiling, strain panel (AID 1159580)
particulars: S. cerevisiae deletion strains, growth OD, locus YGR135W, strain pre9, hits give low values
Among all 5,500 compounds or so, about 2,000 (36%) were called active. Roughly 18% stayed inconclusive and do not appear here. The list shows a part of the results.
One number for each entry.

CC(=O)O[C@@H]1CC2C(C)(C)[C@H](O)CC[C@]2(C)C2CC[C@@]3(C)[C@H](c4ccoc4)OC(=O)C4OC43[C@@]21C (stereo not given in full): 1.05

# batch: return normalized growth for each of the 4 compounds below
1. CC(=O)O[C@@H]1CC2C(C)(C)[C@H](O)CC[C@]2(C)C2CC[C@@]3(C)[C@H](c4ccoc4)OC(=O)[C@H]4O[C@]43[C@@]21C (stereo not given in full)
2. CC1(C)C(=O)[C@@H]2O[C@@H]2[C@@]2(C)C1C[C@@H](O)[C@]1(C)C2CC[C@@]2(C)[C@H](c3ccoc3)OC(=O)C3OC321 (stereo not given in full)
3. CCCNC(=O)NS(=O)(=O)c1ccc(Cl)cc1
4. NCCCC(=O)O

[1.06, 0.952, 1.05, 1.04]

* * *

procedure_summary: chemical genetic growth profiling, strain panel (AID 1159580);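 further: tested at 20 µM; growth read once vehicle control cultures reached saturation at 30 °C; 1 = growth at the plate median or of vehicle wells; lower values mean less growth of the strain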
particulars: S. cerevisiae deletion strains, growth OD, locus YNL071W, strain lat1, hits give low values
Out of some 5,500 compounds screened, about 2,000 (36%) were called active. Not shown: some 18% with an inconclusive outcome. This is one part of the list.
For each of the compounds below, state its normalized growth.
One number for each entry.

Examples with answers:
O=C(O)COc1ccc(Cl)cc1Cl: 1.01
COC(=O)[C@@H]1OC(=O)C2OC23[C@@]1(C)CCC1[C@]2(C)C(C[C@@H](O)[C@]13C)C(C)(C)[C@H](OC(C)=O)C[C@@H]2OC(C)=O (stereo not given in full): 0.997

Need normalized growth for each of these compounds.
1. CC(=O)C1CC[C@H]2C3CC[C@H]4C[C@H](O)CC[C@]4(C)C3CC[C@]12C (stereo not given in full)
2. CC(C)(S)[C@@H](N)C(=O)O
3. CCCCCCCCCCCCCC(=O)OC1C(C)C2(O)C(C=C(CO)CC3(O)C(=O)C(C)=CC32)C2C(C)(C)C12OC(C)=O (stereo not given)
4. CC(=O)C1CCC2C3CCC4C[C@H](O)CCC4(C)C3C[C@H](O)C12C (stereo not given in full)
5. Nc1nc(F)nc2c1ncn2[C@@H]1O[C@H](COP(=O)(O)O)[C@@H](O)[C@@H]1O
6. O=C(O)C(O)C(O)C(=O)O (stereo not given)
7. CC12CCCCC1(Br)[N+](=O)N2[O-] (stereo not given)

1. 0.995
2. 1
3. 0.991
4. 0.975
5. 0.995
6. 0.987
7. 0.946

Please look at this compound and report its normalized growth: "CC(C)c1nc(N(C)S(C)(=O)=O)nc(-c2ccc(F)cc2)c1/C=C/[C@@H](O)C[C@@H](O)CC(=O)O"
1.01

* * *

procedure_summary: chemical genetic growth profiling, strain panel (AID 1159580);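 further: tested at 20 µM; growth read once vehicle control cultures reached saturation at 30 °C; 1 = growth at the plate median or of vehicle wells; lower values mean less growth of the strain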
particulars: S. cerevisiae deletion strains, growth OD, locus YJR075W, strain HOC1
Hit rate of the full screen: of about 5,500 compounds, about 2,000 (36%) were called active. About 18% were inconclusive and are not listed. Rule as the data show it: active = normalized growth mostly below about 0.91 (no sharp cut-off); inconclusive = no clear call, values can overlap the other calls; inactive = mostly above about 0.92. The list shows a part of the results.
Respond with a class label; see t (active), f (inactive)

See these solved cases before continuing.
CCOC(=O)c1ccc(Oc2ccc(Cl)cc2Cl)c([N+](=O)[O-])c1: f
COc1ccc(NC(=O)c2ccc(-c3ccc(-c4noc(C)n4)cc3C)cc2)cc1N1CCN(C)CC1: f
CCOC(=O)c1ccc(Oc2sccc2[N+](=O)[O-])cc1: t
Brc1cccc(C=NCc2ccccc2)c1: t

Field: next compound
Please indicate how the test categorized "Cc1nc(-c2ccc(-c3ccc(C(=O)N4CCc5cc6c(cc54)C4(CCN(C)CC4)CO6)cc3)c(C)c2)no1" .
t

* * *

procedure_summary: chemical genetic growth profiling, strain panel (AID 1159580);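 further: tested at 20 µM; growth read once vehicle control cultures reached saturation at 30 °C; 1 = growth at the plate median or of vehicle wells; lower values mean less growth of the strain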
particulars: S. cerevisiae deletion strains, growth OD, locus YCL069W, strain vba3, hits give low values
The campaign covered roughly 5,500 compounds. About 2,000 (36%) were called active. Inconclusive results (about 18%) are left out. The list shows a part of the results.
quantity: normalized growth
Answers are plain numbers.

FC(F)(F)c1cccc(N2CCNCC2)c1: 1
CC1OC(O[C@H]2/C=C/C=C/C=C/C=C/C=C/C=C/C=C/[C@H](C)[C@@H](O)[C@@H](C)[C@H](C)OC(=O)CC(O)CC(O)CCC(O)C(O)CC(O)C[C@]3(O)C[C@H](O)C(C(=O)O)C(C2)O3)C(O)[C@H](N)C1O (stereo partly drawn): 0.977
CC1CCC(NC(=O)N(CCCl)N=O)CC1 (stereo not drawn): 0.834
O=c1[nH]c(=O)n(C2C[C@H](O)[C@@H](CO)O2)cc1C(F)(F)F (stereo partly drawn): 0.994
COC(=O)[C@@H]1OC(=O)C2OC23[C@@]1(C)CCC1[C@@]2(C)CCC(=O)C(C)(C)C2C[C@@H](OC(C)=O)[C@]13C (stereo partly drawn): 1.01
CCN1C[C@@]2(COC)C3[C@@H](OC)[C@H]4[C@@H]1[C@]3(C(OC)C[C@H]2O)C1C[C@@]2(O)[C@H](OC(=O)c3ccccc3)C1[C@]4(OC(C)=O)[C@@H](O)[C@@H]2OC (stereo partly drawn): 1
CC(C)=CC1C(C(=O)OCc2cccc(Oc3ccccc3)c2)C1(C)C (stereo not drawn): 1.01

Provide only the value of recorded normalized growth for "Fc1ccc([C@@H]2CCNC[C@H]2COc2ccc3c(c2)OCO3)cc1"
1

Where do these numbers come from? They come from PubChem BioAssay AID1159580.
